# Test system: HT1080 cells
# experiment summary: Cellular assay for IDH1m R132C inhibitors, 2-HG by LC-MS in HT1080 cells
# Format: cell-based
# cond: Homo sapiens, HT-1080
recorded endpoint: IC50

FC1(F)CC(Nc2nc(NC3CC(F)(F)C3)nc(-c3cncc(Cl)n3)n2)C1 = < 0.05 µM
FC1(F)CCC(Nc2nc(NC3CCOCC3)nc(-c3cccc(C(F)(F)F)n3)n2)CC1 = 0.1 to 1 µM
FC1(F)CCC(Nc2nc(NC3CCC(F)(F)C3)nc(-c3cccc(C(F)(F)F)n3)n2)C1 (centres unmarked) = < 0.05 µM
FC1(F)CC(Nc2nc(NC3CC(F)(F)C3)nc(-c3ccnc(C(F)(F)F)n3)n2)C1 = 0.1 to 1 µM
N#CC1(c2cc(Nc3nc(NC4CCC(F)(F)C4)nc(-c4cccc(Cl)n4)n3)ccn2)CC1 (centres unmarked) = 0.05 to 0.1 µM
N#Cc1cc(F)cc(Nc2nc(NC3CC(F)(F)C3)nc(-n3ccc(C(F)(F)F)n3)n2)c1 = 0.1 to 1 µM
CC(F)(F)c1nc(-c2nc(NC3CCC(F)(F)C3)nc(NC3CCC(F)(F)C3)n2)cs1 (centres unmarked) = 0.05 to 0.1 µM
N#Cc1cc(Nc2nc(NC3CCC(F)(F)C3)nc(-n3ccc(C(F)(F)F)n3)n2)ccn1 (centres unmarked) = 0.1 to 1 µM

====

# assayed system: IDH1 wt/IDH1 R132H heterodimer (Homo sapiens (Human), UniProt O75874, R132H)
# Sequence (O75874 whole entry R132H): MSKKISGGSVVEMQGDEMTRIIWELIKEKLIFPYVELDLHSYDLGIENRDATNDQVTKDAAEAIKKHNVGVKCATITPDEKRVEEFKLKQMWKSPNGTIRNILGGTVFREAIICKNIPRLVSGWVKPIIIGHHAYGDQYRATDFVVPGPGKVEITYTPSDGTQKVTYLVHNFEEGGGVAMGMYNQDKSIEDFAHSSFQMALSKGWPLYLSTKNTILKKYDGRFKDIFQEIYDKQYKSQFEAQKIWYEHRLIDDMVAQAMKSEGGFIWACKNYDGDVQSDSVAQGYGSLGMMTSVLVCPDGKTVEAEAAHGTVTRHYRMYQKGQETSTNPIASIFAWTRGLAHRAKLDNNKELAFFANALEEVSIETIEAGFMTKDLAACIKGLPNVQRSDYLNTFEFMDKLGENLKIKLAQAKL
# Sequence (O75874 whole entry, stated change not applied): as the sequence (O75874 whole entry R132H) above, with H132R counted along it
# experiment summary: In vitro assay for IDH1m R132H inhibitors, IDH1 wt/IDH1 R132H heterodimer, NADPH depletion (diaphorase/resazurin)
# Type: biochemical
# cond: IDH1 wt/R132H heterodimer, NADPH/NADP, not saturated; read-out: IDH1 wt/R132H NADPH/NADP IC50 not saturated
pIC50: −log10 of the molar value.
recorded endpoint: pIC50

CC(C)(C)OC(=O)N1CCC(Nc2nc(NC3CCC(F)(F)C3)nc(-c3cccc(C(F)(F)F)n3)n2)C1 (stereo not drawn) [Compound 53] = 6.00 to 7.00
CS(=O)(=O)N1CCC(Nc2nc(NC3CCC(F)(F)C3)nc(-c3cccc(C(F)(F)F)n3)n2)C1 (stereo not drawn) = 7.00 to 7.30
Fc1ccc([C@H]2C[C@@H](Nc3nc(N[C@H]4C[C@@H](c5ccc(F)cc5)C4)nc(-c4cccc(C(F)(F)F)n4)n3)C2)cc1 = 6.00 to 7.00
Nc1ccc(F)c(-c2nc(NC3CCC(F)(F)CC3)nc(NC3CCC(F)(F)CC3)n2)n1 = 7.00 to 7.30
CC(F)(F)c1nc(-c2nc(NC3CCC(F)(F)CC3)nc(NC3CCC(F)(F)CC3)n2)cs1 = 6.00 to 7.00
C[C@@H](Nc1nc(NC(C2CC2)C2CC2)nc(-c2cccc(C(F)(F)F)n2)n1)C1CC1 = > 7.30
C[C@@H](Nc1nc(N[C@H](C)C2CC2)nc(-c2cncc(C(F)(F)F)c2)n1)C1CC1 = 6.00 to 7.00
Nc1ccc(F)c(-c2nc(Nc3cc(F)cc(F)c3)nc(NC3CCC(F)(F)CC3)n2)n1 = > 7.30
FC1(F)CC(Nc2nc(NC3CC(F)(F)C3)nc(-n3ccc(C(F)(F)F)n3)n2)C1 = > 7.30
FC1(F)CCC(Nc2nc(NC3CC(c4ccccc4)C3)nc(-c3cccc(C(F)(F)F)n3)n2)C1 (stereo not drawn) = > 7.30
C[C@@H](Nc1nc(N[C@H](C)C2CC2)nc(-c2ccnc(C(F)(F)F)c2)n1)C1CC1 = < 6.00
FC1(F)CCC(Nc2nc(Nc3ccnc(C(F)(F)F)c3)nc(-c3cccc(Cl)n3)n2)C1 (stereo not drawn) = > 7.30
FC1(F)CC2(CC(Nc3nc(NC4CC5(C4)CC(F)(F)C5)nc(-c4cccc(Cl)n4)n3)C2)C1 = 6.00 to 7.00
FC1(F)CCC(Nc2nc(NC3CCC(F)(F)CC3)nc(-c3cncc(C(F)(F)F)n3)n2)CC1 = > 7.30
FC1(F)CC[C@@H](Nc2nc(N[C@@H]3CCC(F)(F)C3)nc(-c3cccc(C(F)(F)F)n3)n2)C1 = > 7.30
C[C@@H](Nc1nc(N[C@H](C)C2CC2)nc(-c2cccc(O)n2)n1)C1CC1 = < 6.00
Fc1ccc([C@H]2C[C@H](Nc3nc(N[C@H]4C[C@H](c5ccc(F)cc5)C4)nc(-c4cccc(C(F)(F)F)n4)n3)C2)cc1 = 6.00 to 7.00
FC(F)(F)CNc1nc(Nc2ccnc(C(F)(F)F)c2)nc(-c2cccc(C(F)(F)F)n2)n1 = > 7.30
CC(Cc1ccccc1)Nc1nc(N[C@H](C)C2CC2)nc(-c2cccc(C(F)(F)F)n2)n1 (stereo partly drawn) = > 7.30
CC[C@@H](Nc1nc(N[C@H](CC)C(F)(F)F)nc(-c2cccc(Cl)n2)n1)C(F)(F)F = > 7.30
Clc1cccc(-c2nc(NC(C3CC3)C3CC3)nc(NC(C3CC3)C3CC3)n2)n1 = > 7.30
FC1(F)CCC(Nc2nc(NC3CCC(F)(F)CC3)nc(-c3c[nH]nc3C(F)(F)F)n2)CC1 = 6.00 to 7.00
Fc1cc(F)cc(Nc2nc(NC3CCC(F)(F)C3)nc(-c3cccc(C(F)(F)F)n3)n2)c1 (stereo not drawn) = > 7.30
FC(F)c1cccc(-c2nc(NC3CC(F)(F)C3)nc(NC3CC(F)(F)C3)n2)n1 = > 7.30
C[C@@H](Nc1nc(N[C@H](C)C2CC2)nc(-c2cccc(N)n2)n1)C1CC1 = 6.00 to 7.00
CC(CN1CCOCC1)Nc1nc(N[C@H](C)C2CC2)nc(-c2cccc(C(F)(F)F)n2)n1 (stereo partly drawn) = < 6.00
C[C@@H](Nc1nc(NC2C3CC4CC(C3)CC2C4)nc(-c2cccc(C(F)(F)F)n2)n1)C1CC1 (stereo partly drawn) = > 7.30
N#Cc1cc(Nc2nc(NC3CCC(F)(F)CC3)nc(-c3cccc(C(F)(F)F)n3)n2)ccn1 = > 7.30
CC(F)(F)c1cc(Nc2nc(NC3CCC(F)(F)C3)nc(-c3cccc(C(F)(F)F)n3)n2)ccn1 (stereo not drawn) = > 7.30
CC(Nc1nc(Nc2ccnc(C(F)(F)F)c2)nc(-c2cccc(C(F)(F)F)n2)n1)C(F)(F)F (stereo not drawn) = > 7.30
